Test: Inhibition of HIV protease by fluorescence energy transfer assay
Set-up: species or system Human immunodeficiency virus
VALUE_KIND: Ki (nM)
Entry rule: numbers only, all in nM.

Identify measured Ki corresponding to COc1ccc(S(=O)(=O)N(C[C@@H]2CCC(=O)N2)C[C@@H](O)[C@H](Cc2ccccc2)NC(=O)O[C@@H]2C[C@@H]3CCO[C@@H]3C2)cc1
0.31

Identify measured Ki associated with Nc1ccc(S(=O)(=O)N(C[C@H]2CCC(=O)N2)C[C@@H](O)[C@H](Cc2ccccc2)NC(=O)O[C@@H]2C[C@@H]3CCO[C@@H]3C2)cc1
0.31

Given Nc1ccc(S(=O)(=O)N(C[C@H]2COC(=O)N2)C[C@@H](O)[C@H](Cc2ccccc2)NC(=O)O[C@H]2CO[C@H]3OCC[C@H]32)cc1 , respond with its Ki.
0.24

Note Ki for the compound shown: COc1ccc(S(=O)(=O)N(C[C@H]2COC(=O)N2)C[C@@H](O)[C@H](Cc2ccccc2)NC(=O)O[C@H]2CO[C@H]3OCC[C@H]32)cc1
0.035

Give recorded Ki. COc1ccc(S(=O)(=O)N(C[C@@H]2CCC(=O)N2)C[C@@H](O)[C@H](Cc2ccccc2)NC(=O)O[C@H]2CO[C@H]3OCC[C@H]32)cc1
0.85

Each recorded value in this set is attributed to ChEMBL document CHEMBL1136990.
